tested on: Endogenous Huntingtin Protein; test: Endogenous Huntingtin Protein Assay (ELISA-based MSD electrochemiluminescence); type: cell-based; details: Table 2; MSD plates coated with MW1 (expanded polyglutamine) or MAB2166 capture antibody; "inactive" = result above the detection limit of the assay
readoutType: IC50 (nM)

Reference set, count: 5
{"columns": ["molecule", "readoutType", "readoutUnits", "experimentalValue"],
 "data": [
  ["Cc1nnn2cc(-c3ccc(-c4cnc(N5C[C@@H](C)N[C@@H](C)C5)nn4)c(O)c3)ccc12", "IC50", "nM", 33.7],
  ["C[C@H]1CN(c2ncc(-c3ccc(-c4cn[nH]c4)cc3O)nn2)CCN1", "IC50", "nM", 124],
  ["CC(C)[C@@H]1CN(c2ncc(-c3ccc(-c4cn[nH]c4)cc3O)nn2)C[C@H](C)N1", "IC50", "nM", 218],
  ["CC(C)[C@H]1CN(c2ncc(-c3ccc(-n4ncc5cncnc54)cc3O)nn2)CCN1", "IC50", "nM", 25.4],
  ["Cc1cn2cc(-c3ccc(-c4cnc(N5CCN(C)CC5)nn4)c(O)c3)cc(F)c2n1", "IC50", "nM", 4.1]
]}

P. COc1cc(-c2ccc(-c3cnc(N4C[C@@H](C)N[C@@H](C5CC5)C4)nn3)c(O)c2)ncn1
Q. Oc1cc(-n2nccn2)cnc1-c1cnc(N2CCN[C@@H](C3CC3)C2)nn1
R. [2H]C([2H])([2H])Oc1cc(-c2ccc(-c3cnc(N4CCN[C@@H](C(C)(C)C)C4)nn3)c(O)c2)ncn1
S. C[C@@H]1CN(c2ncc(-c3ccc(-n4nccn4)cc3O)nn2)C[C@H](C)N1C
query: Arrange the 4 molecules from largest to smallest IC50. Please write the labels in the order that was asked for.
result: S, Q, R, P
